Attribution: PubChem BioAssay (NCI)

# Tested on: M14 melanoma
# Method Description: NCI tumour cell line growth inhibition, 48 h
Kindly return MET if reported TGI is no lower than 8 µM; return NOT MET if it is lower.

| Compound | Assigned Category |
| --- | --- |
| [Cu+2].[NH-]C(CC(=O)O)C(=O)O.[NH-]C(CC(=O)O)C(=O)O (centres undefined) | MET |
| O=C1c2c(Cl)c(Cl)c(Cl)c(Cl)c2C(=O)C2(Cl)CC=CCC12Cl (centres undefined) | NOT MET |
| O=CN1CCC23CC(O)CCC2C1Cc1cc(Oc2nnnn2-c2ccccc2)cc(O)c13 (centres undefined) | MET |
| NC(=O)CCC(NC(=O)c1c2ccccc2nc2ccccc12)C(=O)O (centres undefined) | MET |
| NC(N)=Nc1ccc(/C=C2\C=Cc3ccccc32)cc1 | NOT MET |
| CN1C(=O)C2(c3ccccc31)C1CC3C(CO1)C1C2C3(CO)CN1C#N (centres undefined) | MET |
| CC(=O)OCC1OC(n2ncc(=O)[nH]c2=O)C(OC(C)=O)C1OC(C)=O (centres undefined) | MET |
| Cc1ccc(C2=Nc3ccccc3S(=O)C(c3ccc4c(c3)OCO4)C2)cc1 (centres undefined) | MET |
| CC1(C)CCCCCCCCCC2CC2CCC(C)(C)C1=O (centres undefined) | MET |
| CN(C)c1ccccc1[CH2][Ga]([Cl])[CH2]c1ccccc1N(C)C | NOT MET |
| COc1ccc(N=Cc2ccc(N(CCC#N)S(=O)(=O)c3ccccc3)cc2C)cc1 | MET |
| CCOC(=O)C1SC(=Nc2ccc(Cl)cc2Cl)N=C1C (centres undefined) | MET |
| CC(=Nc1ccc(Cl)c(Cl)c1)c1ccncc1 | MET |

----------
# Tested on: SR leukemia
# Method Description: NCI tumour cell line growth inhibition, 48 h

| Molecule | GI50 |
| --- | --- |
| COc1cc2nc3cc([N+](=O)[O-])ccc3c(NCCNCC(C)O)c2cc1OC (stereo not drawn) | 286 nM |
| O=C1NC(=NCCc2ccccn2)S/C1=C\c1ccc2ncccc2c1 | 4210 nM |
| COc1ccc(NC(=O)c2ccc(NC3=C(Cl)C(=O)N(Cc4ccccc4)C3=O)cc2)c(OC)c1 | 1390 nM |
| CNC(=O)c1cccc(C#Cc2cncnc2Nc2ccc(OCc3cccc(F)c3)c(Cl)c2)c1 | 24200 nM |
| CN(C)Cc1c(C(=O)NCCOc2ccc(C(=O)NO)cc2)oc2ccccc12 | 203 nM |
| O=S(=O)(NCCCNc1cc(-c2cn(-c3ccccc3)nc2-c2cccc(O)c2)ccn1)c1ccc(Br)cc1 | 1510 nM |
| COc1cc(CCNC(=O)OC(C)(C)C)c2c(c1OC)SSSSS2 | 4480 nM |
| CC(C)(C)c1cc(-c2nc3ccc(N4CCN(CCO)CC4)cc3[nH]2)cc(C(C)(C)C)c1O | 2770 nM |

----------
Documented TGI across a set of compounds
# Tested on: DU-145 prostate
# Method Description: NCI tumour cell line growth inhibition, 48 h

| Compound | Unit Spec | Measurement Qualifier | TGI |
| --- | --- | --- | --- |
| CN1C(=O)C2(c3ccccc31)C1CC3C(CO1)C1C2C3(CO)CN1C#N (stereo not given) | µM | > | 100 |
| CC(=O)NC1COC(COC(=O)CCCCCCCCCCNC(=O)c2ccc([N+](=O)[O-])c3c(=O)c4ccccc4[nH]c23)C(O)C1OC(C)C(=O)NC(C(=O)NC(CCC(N)=O)C(=O)OCc1ccccc1)C(C)C (stereo not given) | µM | = | 12.3 |
| COc1ccc(NC(=O)c2ccc(NC3=C(Cl)C(=O)N(Cc4ccccc4)C3=O)cc2)c(OC)c1 | µM | = | 85.7 |
| COC(=O)/N=[N+](\[O-])C(c1ccccc1)c1ccccc1 | µM | > | 100 |
| O=[N+]([O-])C(/C=C(\Cl)[N+](=O)[O-])=C(N1CCCCC1)N1CCCCC1 | µM | > | 100 |
| CCCCCCCCCCCCCCCCN(CC)CC | µM | = | 7.52 |
| COC(=O)[C@]12CSC[C@H]1C[C@H](c1cccc3ccccc13)N2 | µM | > | 100 |
| Cc1cc2c(cc1Cl)SC(c1ccccc1O)NS2(=O)=O (stereo not given) | µM | > | 100 |
| COc1ccc(-c2[nH]nc(N)c2-c2cc(OC)c(OC)c(OC)c2)cc1 | µM | = | 1.76 |
| COP(=O)(OC)[C@H](O)[C@H]1C[C@@H]1c1ccccc1 | µM | > | 100 |

----------
Below, each entry is listed with its recorded TGI.
# Test system: HCC-2998 colon
# Method Description: NCI tumour cell line growth inhibition, 48 h

| Molecule | TGI |
| --- | --- |
| CCOC(=O)c1sc2nc1CSc1sc(=S)sc1SCc1nc(sc1C(=O)OCC)-c1nc(c(C(=O)OCC)s1)CSc1sc(=S)sc1SCc1nc-2sc1C(=O)OCC | > 10 µM |
| O=C1c2cc(F)ccc2-c2c1c1ccc([N+](=O)[O-])cc1c(=O)n2CCCBr | > 100 µM |
| CN1CCN(CCCN2c3ccccc3Sc3ccc(Cl)cc32)CC1 | 10.3 µM |
| O=C1CC2CC(CC3(CO3)C2)C1F (stereo not given) | > 100 µM |
| COc1cc(/C=C/C(=O)c2c(-c3ccc(F)cc3)nc3sc(C)nn23)cc(OC)c1OC | 3.96 µM |
| O=C(O)c1c2c(cc3c(=O)cc(-c4ccccc4)oc13)CCCC2 | > 100 µM |
| CC(=O)Oc1ccc2cc(-c3ccc(OC(C)=O)c(OC(C)=O)c3)c(=O)oc2c1 | > 100 µM |
| Cc1[nH]nc2ncc(C(=O)N3CCC[C@H]3c3ccc(Cl)cc3)cc12 | > 100 µM |
| COC(=O)c1oc2c(C(=O)/C=C/c3ccc(OC)cc3)c(OCCN3CCOCC3)ccc2c1C | 3.17 µM |
| COC(=O)[C@]12CSC[C@H]1C[C@H](c1cccc3ccccc13)N2 | > 100 µM |

----------
# Tested on: HCT-116 colon
# Method Description: NCI tumour cell line growth inhibition, 48 h; in the data active = GI50 below about 0.43 µM; inactive = the rest
Outcome codes: YES for active, NO for inactive

| Compound | Assigned Category |
| --- | --- |
| O=S(=O)(NCCCNc1cc(-c2cn(-c3ccccc3)nc2-c2cccc(O)c2)ccn1)c1ccc(Br)cc1 | NO |
| CCCCCCCCCCCCCCCCN(CC)CC | NO |
| NC(=O)c1cc(Br)ccc1NC(=O)/C=C/c1ccccc1 | NO |
| C=C1CC2C3C=C(C)C4=CC(=O)CC[C@]4(C)C3CC[C@]2(C)[C@@]1(OC(C)=O)C(C)=O (some centres not stated) | NO |
| NCCSC(c1ccccc1)(c1ccccc1)c1ccccc1 | YES |
| COc1cc2c(c(OC)c1OC)-c1c(c3ccc([N+](=O)[O-])cc3c(=O)n1CCCN)C2=O | NO |
| Cc1sc2c(c1C)C(c1ccc(Cl)cc1)=N[C@@H](CC(=O)NCCCN1CCN(C)CC1)c1nnc(C)n1-2 | NO |

----------
# Tested on: MOLT-4 leukemia
# Method Description: NCI tumour cell line growth inhibition, 48 h

| Molecule | GI50 |
| --- | --- |
| COc1ccc(NC(=O)c2ccc(NC3=C(Cl)C(=O)N(Cc4ccccc4)C3=O)cc2)c(OC)c1 | 9.94 µM |
| N#CC1=C(N)Oc2c(sc3c(Br)cccc23)C1c1ccc(Cl)cc1 (stereo not given) | 0.625 µM |
| O=C1c2c(Cl)c(Cl)c(Cl)c(Cl)c2C(=O)C2(Cl)CC=CCC12Cl (stereo not given) | 2.39 µM |
| Cc1[nH]nc2ncc(C(=O)N3CCC[C@H]3c3ccc(Cl)cc3)cc12 | 72.1 µM |
| CC[PH+](CC)CC.CC[PH+](CC)CC.[Au] | 5.33 µM |
| CCCN(CCC)c1ccc(C=O)c(C)c1 | 39.8 µM |
| C=C1c2nc3ccccc3n2C=C(c2ccc(Cl)cc2)N1c1ccc(OCCN2CCCCC2)cc1 | 0.553 µM |
| C=CC(=O)Nc1cccc(Oc2nc(Nc3ccc(N4CCN(C)CC4)cc3OC)ncc2Cl)c1 | 2.57 µM |
| Cc1sc2c(c1C)C(c1ccc(Cl)cc1)=N[C@@H](CC(=O)NCCCN1CCN(C)CC1)c1nnc(C)n1-2 | 22.2 µM |
| Nc1nn(C(=O)Nc2c(F)cccc2F)c2ccccc12 | 32.7 µM |

----------
Catalogue of GI50 values
# Test system: M14 melanoma
# Method Description: NCI tumour cell line growth inhibition, 48 h
Measure: GI50

| Chemical Structure | Result Value |
| --- | --- |
| COc1ccc(NC(=O)c2ccc(NC3=C(Cl)C(=O)N(Cc4ccccc4)C3=O)cc2)c(OC)c1 | 18.5 µM |
| Cn1c(-c2c(N)n(Cc3ccc(F)cc3)c3nc(C#N)c(C#N)nc23)nc2ccccc21 | 3.48 µM |
| CCCN(CCC)c1ccc(C=O)c(C)c1 | 44.8 µM |
| COc1cc(CCNC(=O)OC(C)(C)C)c2c(c1OC)SSSSS2 | 4.13 µM |
| O=C(c1ccccc1)c1nc2ccc(C(F)(F)F)cc2nc1N1CCN(c2ccccc2)CC1 | 23.2 µM |
| O=C1c2cc(F)ccc2-c2c1c1ccc([N+](=O)[O-])cc1c(=O)n2CCCBr | 13.3 µM |
| Cc1[nH]nc2ncc(C(=O)N3CCC[C@H]3c3ccc(Cl)cc3)cc12 | > 100 µM |
| Nc1nn(C(=O)Nc2c(F)cccc2F)c2ccccc12 | 74.6 µM |
| C=C1C(=O)O[C@H]2[C@H]1CC/C(CNC(=O)/C=C/c1ccccc1F)=C\CC[C@@]1(C)O[C@@H]21 | 1.34 µM |
| CN(C)CCOc1ccccc1NC1=C(Cl)C(=O)C(Nc2ccccc2OCCN(C)C)=C(Cl)C1=O | > 27 µM |
| O=c1oc2ccc(Br)cc2c(=O)n1-c1ccc(Cl)cc1F | 0.925 µM |
